# target desc: Galectin-9 (Homo sapiens, UniProt O00182)
# Sequence (O00182 whole entry): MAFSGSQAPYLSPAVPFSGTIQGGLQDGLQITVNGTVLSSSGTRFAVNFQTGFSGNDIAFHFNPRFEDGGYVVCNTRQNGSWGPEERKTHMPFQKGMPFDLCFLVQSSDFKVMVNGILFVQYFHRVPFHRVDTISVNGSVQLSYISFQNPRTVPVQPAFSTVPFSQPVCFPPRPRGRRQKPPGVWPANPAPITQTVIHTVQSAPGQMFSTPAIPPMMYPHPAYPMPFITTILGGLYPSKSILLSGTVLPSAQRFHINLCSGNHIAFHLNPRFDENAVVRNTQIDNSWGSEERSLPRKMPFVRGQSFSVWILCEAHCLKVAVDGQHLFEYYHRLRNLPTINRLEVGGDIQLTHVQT
pKd: −log10 of the molar value.
Please enter Fulfilled where pKd is greater than or equal to 4, and Not fulfilled where it is lower.

# example entries with known answers
CS[C@@H]1O[C@H](CO)[C@H](O)[C@H](NC(=O)c2ccc(C)cc2)[C@H]1O
Not fulfilled
CO[C@H]1O[C@H](CO)[C@H](O)[C@H](OCc2cc3ccccc3o/c2=N\S(=O)(=O)c2ccccc2)[C@H]1OC(C)=O
Fulfilled
CO[C@H]1O[C@H](CO)[C@H](O)[C@H](OCc2cc3ccccc3o/c2=N\S(=O)(=O)c2ccccc2)[C@H]1O
Fulfilled

# evaluate next
*Q* Answer whether pKd of CO[C@H]1O[C@H](CO)[C@H](O)[C@H](OCc2cc3ccccc3oc2=O)[C@H]1O is greater than or equal to 4.
*A* Not fulfilled

###

# target desc: Galectin-9 (Homo sapiens, UniProt O00182)
measured parameter: Kd

Illustrative cases are given below, each with its answer.
CO[C@H]1O[C@H](CO)[C@H](O)[C@H](O)[C@H]1O
2800 µM
CO[C@@H]1O[C@H](CO)[C@@H](O[C@@H]2O[C@H](CO)[C@H](O)[C@H](O)[C@H]2O)[C@H](O)[C@H]1O
23 µM

*Q* // fetch Kd; item: Cc1ccc(S(=O)(=O)/N=c2\oc3ccccc3cc2CO[C@@H]2O[C@H](CO)[C@H](O)[C@H](O)[C@H]2O)cc1 ; system: Galectin-9 (Homo sapiens, UniProt O00182)
*A* 7100 µM

*Q* // fetch Kd; item: CS[C@@H]1O[C@H](CO)[C@H](O)[C@H](n2cc(C(=O)NCc3ccccc3)nn2)[C@H]1O ; system: Galectin-9 (Homo sapiens, UniProt O00182)
*A* > 5000 µM

###

Recorded Kd values (Galectin-8 (Homo sapiens)) are given below.

Illustrative cases are given below, each with its answer.
CO[C@H]1O[C@H](CO)[C@H](O)[C@H](OCc2cc3ccccc3o/c2=N\S(=O)(=O)c2ccc(C)cc2)[C@H]1OC(C)=O
170 µM
Cc1ccc(S(=O)(=O)/N=c2\oc3ccccc3cc2CO[C@@H]2O[C@H](CO)[C@@H](O[C@@H]3O[C@H](CO)[C@H](O)[C@H](O)[C@H]3O)[C@H](O)[C@H]2O)cc1
140 µM
Cc1ccc(S(=O)(=O)/N=c2\oc3ccccc3cc2CO[C@@H]2O[C@H](CO)[C@H](O)[C@H](O)[C@H]2O)cc1
3900 µM

*Q* Kindly indicate its recorded Kd. Item: CO[C@@H]1O[C@H](CO)[C@@H](O[C@@H]2O[C@H](CO)[C@H](O)[C@H](O)[C@H]2O)[C@H](O)[C@H]1O
*A* 62 µM

*Q* Kindly indicate its recorded Kd. Item: CS[C@@H]1O[C@H](CO)[C@H](O)[C@H](NC(=O)c2ccc(C)cc2)[C@H]1O
*A* > 2000 µM

###

# target desc: Galectin-7 (Homo sapiens, UniProt P47929)
# Sequence (P47929 whole entry): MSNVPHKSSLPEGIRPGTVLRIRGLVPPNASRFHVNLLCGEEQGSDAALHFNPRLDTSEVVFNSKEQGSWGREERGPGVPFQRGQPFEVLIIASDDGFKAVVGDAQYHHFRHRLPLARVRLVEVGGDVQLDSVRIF
# assay name: Antagonist activity against human galectin 7 by fluorescence polarization assay
# test context: read-out: Kd
# Kd per record follows
Field: numeric (mM). Do not append units.

Illustrative cases are given below, each with its answer.
CO[C@H]1O[C@H](CO)[C@H](O)[C@H](O)[C@H]1O
11
CO[C@H]1O[C@H](CO)[C@H](O)[C@H](OCc2cc3ccccc3oc2=O)[C@H]1O
0.85

*Q* Kindly indicate its recorded Kd. Item: CO[C@H]1O[C@H](CO)[C@H](O)[C@H](OCc2cc3ccccc3o/c2=N\S(=O)(=O)c2ccc(C)cc2)[C@H]1O
*A* 1.7

###

# pKd per record follows
# target desc: Galectin-1 (Homo sapiens, UniProt P09382)
# Sequence (P09382 whole entry): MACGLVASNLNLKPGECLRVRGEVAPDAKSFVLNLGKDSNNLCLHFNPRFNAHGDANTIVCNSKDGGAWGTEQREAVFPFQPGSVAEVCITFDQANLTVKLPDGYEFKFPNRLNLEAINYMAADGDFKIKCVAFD
# assay name: Antagonist activity against human galectin 1 by fluorescence polarization assay
# test context: read-out: Kd
Convention used: pKd is expressed as -log10 of the molar concentration.

Illustrative cases are given below, each with its answer.
CO[C@H]1O[C@H](CO)[C@H](O)[C@H](OCc2cc3ccccc3oc2=O)[C@H]1O
2.72
CO[C@H]1O[C@H](CO)[C@H](O)[C@H](OCc2cc3ccccc3o/c2=N\S(=O)(=O)c2ccccc2)[C@H]1OC(C)=O
2.35
CO[C@H]1O[C@H](CO)[C@H](O)[C@H](OCc2cc3ccccc3o/c2=N\S(=O)(=O)c2ccccc2)[C@H]1O
3.19
Cc1ccc(S(=O)(=O)/N=c2\oc3ccccc3cc2CO[C@@H]2O[C@H](CO)[C@@H](O[C@@H]3O[C@H](CO)[C@H](O)[C@H](O)[C@H]3O)[C@H](O)[C@H]2O)cc1
3.30
CO[C@H]1O[C@H](CO)[C@H](O)[C@H](OCc2cc3ccccc3o/c2=N\S(=O)(=O)c2ccc(C)cc2)[C@H]1O
2.77
CO[C@H]1O[C@H](CO)[C@H](O)[C@H](OCc2cc3ccccc3o/c2=N\S(=O)(=O)c2ccc(C)cc2)[C@H]1OC(C)=O
2.29

*Q* Kindly indicate its recorded pKd. Item: Cc1ccc(S(=O)(=O)/N=c2\oc3ccccc3cc2CO[C@@H]2O[C@H](CO)[C@H](O)[C@H](O)[C@H]2O)cc1
*A* 2.44

*Q* Kindly indicate its recorded pKd. Item: CS[C@@H]1O[C@H](CO)[C@H](O)[C@H](NC(=O)c2ccc(C)cc2)[C@H]1O
*A* 3.01

*Q* Kindly indicate its recorded pKd. Item: CO[C@@H]1O[C@H](CO)[C@@H](O[C@@H]2O[C@H](CO)[C@H](O)[C@H](O)[C@H]2O)[C@H](O)[C@H]1O
*A* 3.72

###

# target desc: Galectin-3 (Homo sapiens, UniProt P17931)
# Sequence (P17931 whole entry): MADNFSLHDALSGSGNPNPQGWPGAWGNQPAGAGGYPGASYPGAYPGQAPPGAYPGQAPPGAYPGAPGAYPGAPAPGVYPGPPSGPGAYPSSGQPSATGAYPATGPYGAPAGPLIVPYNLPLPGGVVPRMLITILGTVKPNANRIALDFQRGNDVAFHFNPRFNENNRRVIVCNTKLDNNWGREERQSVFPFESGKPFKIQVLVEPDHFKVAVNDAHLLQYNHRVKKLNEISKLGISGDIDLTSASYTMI
measured parameter: Kd (µM)
Field: numeric (µM). Do not append units.

Illustrative cases are given below, each with its answer.
Cc1ccc(S(=O)(=O)/N=c2\oc3ccccc3cc2CO[C@@H]2O[C@H](CO)[C@@H](O[C@@H]3O[C@H](CO)[C@H](O)[C@H](O)[C@H]3O)[C@H](O)[C@H]2O)cc1
130
CO[C@H]1O[C@H](CO)[C@H](O)[C@H](OCc2cc3ccccc3o/c2=N\S(=O)(=O)c2ccccc2)[C@H]1O
81
CO[C@H]1O[C@H](CO)[C@H](O)[C@H](OCc2cc3ccccc3oc2=O)[C@H]1O
78
CO[C@H]1O[C@H](CO)[C@H](O)[C@H](OCc2cc3ccccc3o/c2=N\S(=O)(=O)c2ccc(C)cc2)[C@H]1OC(C)=O
97

*Q* Kindly indicate its recorded Kd. Item: Cc1ccc(S(=O)(=O)/N=c2\oc3ccccc3cc2CO[C@@H]2O[C@H](CO)[C@H](O)[C@H](O)[C@H]2O)cc1
*A* 10000

###

# target desc: Galectin-7 (Homo sapiens, UniProt P47929)
# assay name: Antagonist activity against human galectin 7 by fluorescence polarization assay
# test context: read-out: Kd
measured parameter: Kd

Illustrative cases are given below, each with its answer.
CO[C@H]1O[C@H](CO)[C@H](O)[C@H](OCc2cc3ccccc3o/c2=N\S(=O)(=O)c2ccc(C)cc2)[C@H]1OC(C)=O
180 µM
CO[C@H]1O[C@H](CO)[C@H](O)[C@H](OCc2cc3ccccc3o/c2=N\S(=O)(=O)c2ccccc2)[C@H]1O
1100 µM
CO[C@H]1O[C@H](CO)[C@H](O)[C@H](OCc2cc3ccccc3o/c2=N\S(=O)(=O)c2ccccc2)[C@H]1OC(C)=O
230 µM

*Q* Kindly indicate its recorded Kd. Item: CO[C@@H]1O[C@H](CO)[C@@H](O[C@@H]2O[C@H](CO)[C@H](O)[C@H](O)[C@H]2O)[C@H](O)[C@H]1O
*A* 110 µM
